src = patent US5576436A

Biological target: Muscarinic-M1
Test: Fluorescent ligand binding, muscarinic-M1 receptor
Conditions: Table I; centri., quench; read-out: Fluores. Kd
PROPERTY LABEL: Kd (nM)
Give just the number in nM; leave the unit off.

Ask: So what's the measured Kd for this one? O=[N+]([O-])c1ccc(NCCN2CCOCC2)c2nonc12
Reply: 985

###

Molecular target: Dopamine 1
Assay: Radioligand binding, dopamine 1
Settings: Table I; read-out: Radiolig. Kd:Ki
PROPERTY LABEL: pKi
Remember the convention: pKi equals -log10 of concentration in molar.

Ask: So what's the measured pKi for this one? O=[N+]([O-])c1ccc(NCCN2CCN(CCCN3c4ccccc4Sc4ccc(C(F)(F)F)cc43)CC2)c2nonc12
Reply: 7.96
